# ASSAY TARGET: Dipeptidyl peptidase 9 (Homo sapiens)
# Sequence (Q86TI2 whole entry): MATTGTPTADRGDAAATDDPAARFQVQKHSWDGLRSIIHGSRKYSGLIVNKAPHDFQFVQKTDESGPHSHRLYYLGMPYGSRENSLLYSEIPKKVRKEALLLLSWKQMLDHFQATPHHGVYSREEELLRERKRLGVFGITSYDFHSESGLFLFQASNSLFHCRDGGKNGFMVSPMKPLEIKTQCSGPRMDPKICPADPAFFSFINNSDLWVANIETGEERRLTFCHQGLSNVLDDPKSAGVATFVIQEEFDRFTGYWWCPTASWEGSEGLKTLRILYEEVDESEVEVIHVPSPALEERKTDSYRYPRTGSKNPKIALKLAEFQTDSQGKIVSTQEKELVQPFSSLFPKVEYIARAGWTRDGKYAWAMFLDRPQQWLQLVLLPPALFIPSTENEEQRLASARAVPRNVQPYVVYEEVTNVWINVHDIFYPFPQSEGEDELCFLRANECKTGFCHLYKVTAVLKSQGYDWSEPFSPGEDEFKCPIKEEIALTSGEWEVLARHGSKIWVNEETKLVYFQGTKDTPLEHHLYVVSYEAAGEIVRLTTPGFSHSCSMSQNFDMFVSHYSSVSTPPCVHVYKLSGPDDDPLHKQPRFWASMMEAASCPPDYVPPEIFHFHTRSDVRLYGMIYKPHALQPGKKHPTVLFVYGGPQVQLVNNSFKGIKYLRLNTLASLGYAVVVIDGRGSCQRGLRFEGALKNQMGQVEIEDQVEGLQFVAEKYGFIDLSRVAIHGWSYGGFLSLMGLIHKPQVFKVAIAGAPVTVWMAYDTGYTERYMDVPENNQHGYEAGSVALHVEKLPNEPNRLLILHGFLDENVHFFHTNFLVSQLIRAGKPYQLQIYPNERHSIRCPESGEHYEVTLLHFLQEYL
# TEST PROTOCOL: Inhibition of DPP9
Returns: string. Value is Fulfilled if measured IC50 is below 40 µM, and Not fulfilled if it is greater than or equal to it.

Input line: In plain terms, does N[C@H]1CN(c2cccc(C(F)(F)F)n2)CC[C@@H]1c1cc(F)c(F)cc1F come in under 40 µM for IC50?
Output line: Fulfilled

---
Input line: In plain terms, does N[C@H]1CN(c2ccc3nncn3n2)CC[C@@H]1c1cc(F)c(F)cc1F come in under 40 µM for IC50?
Output line: Not fulfilled

Input line: In plain terms, does N[C@H]1CN(c2cnc3nccnc3n2)CC[C@@H]1c1cc(F)c(F)cc1F.O=C(O)C(F)(F)F come in under 40 µM for IC50?
Output line: Not fulfilled

Input line: In plain terms, does N[C@H]1CN(c2ncccn2)CC[C@@H]1c1cc(F)c(F)cc1F come in under 40 µM for IC50?
Output line: Not fulfilled
